Below, each entry is listed alongside its reported pKd.
- target-system: FcγRI (UniProt P12314)
- assay-remarks: SPR
pKd: −log10 of the molar value.
measurement-kind: pKd

>>> obs_value("Palivizumab (antibody, V domains shown) VH: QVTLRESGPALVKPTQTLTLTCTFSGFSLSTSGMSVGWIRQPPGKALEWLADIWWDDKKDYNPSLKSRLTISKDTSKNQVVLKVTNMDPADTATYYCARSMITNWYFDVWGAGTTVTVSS VL: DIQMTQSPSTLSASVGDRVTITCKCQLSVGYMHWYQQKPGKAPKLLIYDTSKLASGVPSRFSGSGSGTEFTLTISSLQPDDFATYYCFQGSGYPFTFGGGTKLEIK")
9.00
>>> obs_value("MEDI8897*-TM (antibody, V domains shown) VH: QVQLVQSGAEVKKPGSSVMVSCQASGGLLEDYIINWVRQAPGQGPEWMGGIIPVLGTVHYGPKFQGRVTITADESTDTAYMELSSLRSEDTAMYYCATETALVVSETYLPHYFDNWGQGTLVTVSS VL: DIQMTQSPSSLSAAVGDRVTITCQASQDIVNYLNWYQQKPGKAPKLLIYVASNLETGVPSRFSGSGSGTDFSLTISSLQPEDVATYYCQQYDNLPLTFGGGTKVEIK")
6.62
>>> obs_value("Nirsevimab (antibody, V domains shown) VH: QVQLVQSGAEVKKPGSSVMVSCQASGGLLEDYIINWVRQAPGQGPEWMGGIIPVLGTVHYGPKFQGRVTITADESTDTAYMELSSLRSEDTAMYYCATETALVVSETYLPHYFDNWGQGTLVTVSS VL: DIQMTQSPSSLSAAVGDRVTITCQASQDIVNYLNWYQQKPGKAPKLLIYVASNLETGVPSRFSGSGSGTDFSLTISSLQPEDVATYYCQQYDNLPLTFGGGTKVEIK")
7.99
>>> obs_value("MEDI8897* (antibody, V domains shown) VH: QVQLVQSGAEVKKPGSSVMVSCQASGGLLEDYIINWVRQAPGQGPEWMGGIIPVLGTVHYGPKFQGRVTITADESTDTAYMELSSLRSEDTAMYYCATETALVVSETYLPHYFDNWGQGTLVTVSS VL: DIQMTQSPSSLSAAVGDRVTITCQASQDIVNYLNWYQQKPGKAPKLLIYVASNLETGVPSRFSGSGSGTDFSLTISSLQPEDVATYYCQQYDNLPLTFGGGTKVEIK")
8.91
